FYI, the data here is from patent US20040147432A1.

# systemName: human MCH-1R (human, UniProt Q99705 1-353)
# Sequence (Q99705 whole entry, form in doubt): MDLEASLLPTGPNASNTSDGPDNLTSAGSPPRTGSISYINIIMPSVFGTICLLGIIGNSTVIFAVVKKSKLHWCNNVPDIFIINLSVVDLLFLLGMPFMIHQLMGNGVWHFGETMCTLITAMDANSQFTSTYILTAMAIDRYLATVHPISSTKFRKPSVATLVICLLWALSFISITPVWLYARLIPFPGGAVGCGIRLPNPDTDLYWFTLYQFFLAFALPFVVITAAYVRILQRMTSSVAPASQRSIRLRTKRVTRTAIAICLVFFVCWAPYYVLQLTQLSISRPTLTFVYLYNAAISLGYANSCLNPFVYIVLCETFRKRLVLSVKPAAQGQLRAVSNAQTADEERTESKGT
# assayRemarks: cell-based or functional assay
Bridges are numbered along the chain shown (N, C = ends). Where no end group is shown, it is not given here.
propertyLabel: Activation % at 10 µM (aequorin functional assay) (%)
The reply should contain only the number, in %.

Below: 2 binders and their reported Activation % at 10 µM (aequorin functional assay).
DFDMLACMLGRVYRPCWQV (disulfide 7-16, also called Ala^6) [SEQ. ID. NO. 46]	81
DFDMLRCMLGRVFRPCYQV (disulfide 7-16, label prints Tyr^17 while the radioligand is Phe^13, Tyr^19; also called Phe^13, Tyr^17) [SEQ. ID. NO. 57]	97

For the next question, use this binder.
Query: Returns the measured Activation % at 10 µM (aequorin functional assay) for the input binder. Input: DFDMLRCMLGRVARPCWQV (disulfide 7-16, also called Ala^13) [SEQ. ID. NO. 51]
Response: 20
